- procedure_text: Volume of distribution at steady state in rat at 0.3 mg/kg, iv via infusion for 1 hr
- Format: ADME, organism-based
- measurement_context: in vivo, read-out: Vdss
attribute_measured: Vd (L/kg)

compound_smiles | endpoint_value
N#Cc1cc(S(=O)(=O)Nc2ncns2)ccc1Oc1ccc(-c2cccc(C(F)(F)F)c2)cc1-c1ccnc(CNCCC2CCNCC2)c1 | 0.59

###

- target_of_assay: Sodium channel protein type 9 subunit alpha (Rattus norvegicus, UniProt O08562)
- Sequence (O08562 whole entry): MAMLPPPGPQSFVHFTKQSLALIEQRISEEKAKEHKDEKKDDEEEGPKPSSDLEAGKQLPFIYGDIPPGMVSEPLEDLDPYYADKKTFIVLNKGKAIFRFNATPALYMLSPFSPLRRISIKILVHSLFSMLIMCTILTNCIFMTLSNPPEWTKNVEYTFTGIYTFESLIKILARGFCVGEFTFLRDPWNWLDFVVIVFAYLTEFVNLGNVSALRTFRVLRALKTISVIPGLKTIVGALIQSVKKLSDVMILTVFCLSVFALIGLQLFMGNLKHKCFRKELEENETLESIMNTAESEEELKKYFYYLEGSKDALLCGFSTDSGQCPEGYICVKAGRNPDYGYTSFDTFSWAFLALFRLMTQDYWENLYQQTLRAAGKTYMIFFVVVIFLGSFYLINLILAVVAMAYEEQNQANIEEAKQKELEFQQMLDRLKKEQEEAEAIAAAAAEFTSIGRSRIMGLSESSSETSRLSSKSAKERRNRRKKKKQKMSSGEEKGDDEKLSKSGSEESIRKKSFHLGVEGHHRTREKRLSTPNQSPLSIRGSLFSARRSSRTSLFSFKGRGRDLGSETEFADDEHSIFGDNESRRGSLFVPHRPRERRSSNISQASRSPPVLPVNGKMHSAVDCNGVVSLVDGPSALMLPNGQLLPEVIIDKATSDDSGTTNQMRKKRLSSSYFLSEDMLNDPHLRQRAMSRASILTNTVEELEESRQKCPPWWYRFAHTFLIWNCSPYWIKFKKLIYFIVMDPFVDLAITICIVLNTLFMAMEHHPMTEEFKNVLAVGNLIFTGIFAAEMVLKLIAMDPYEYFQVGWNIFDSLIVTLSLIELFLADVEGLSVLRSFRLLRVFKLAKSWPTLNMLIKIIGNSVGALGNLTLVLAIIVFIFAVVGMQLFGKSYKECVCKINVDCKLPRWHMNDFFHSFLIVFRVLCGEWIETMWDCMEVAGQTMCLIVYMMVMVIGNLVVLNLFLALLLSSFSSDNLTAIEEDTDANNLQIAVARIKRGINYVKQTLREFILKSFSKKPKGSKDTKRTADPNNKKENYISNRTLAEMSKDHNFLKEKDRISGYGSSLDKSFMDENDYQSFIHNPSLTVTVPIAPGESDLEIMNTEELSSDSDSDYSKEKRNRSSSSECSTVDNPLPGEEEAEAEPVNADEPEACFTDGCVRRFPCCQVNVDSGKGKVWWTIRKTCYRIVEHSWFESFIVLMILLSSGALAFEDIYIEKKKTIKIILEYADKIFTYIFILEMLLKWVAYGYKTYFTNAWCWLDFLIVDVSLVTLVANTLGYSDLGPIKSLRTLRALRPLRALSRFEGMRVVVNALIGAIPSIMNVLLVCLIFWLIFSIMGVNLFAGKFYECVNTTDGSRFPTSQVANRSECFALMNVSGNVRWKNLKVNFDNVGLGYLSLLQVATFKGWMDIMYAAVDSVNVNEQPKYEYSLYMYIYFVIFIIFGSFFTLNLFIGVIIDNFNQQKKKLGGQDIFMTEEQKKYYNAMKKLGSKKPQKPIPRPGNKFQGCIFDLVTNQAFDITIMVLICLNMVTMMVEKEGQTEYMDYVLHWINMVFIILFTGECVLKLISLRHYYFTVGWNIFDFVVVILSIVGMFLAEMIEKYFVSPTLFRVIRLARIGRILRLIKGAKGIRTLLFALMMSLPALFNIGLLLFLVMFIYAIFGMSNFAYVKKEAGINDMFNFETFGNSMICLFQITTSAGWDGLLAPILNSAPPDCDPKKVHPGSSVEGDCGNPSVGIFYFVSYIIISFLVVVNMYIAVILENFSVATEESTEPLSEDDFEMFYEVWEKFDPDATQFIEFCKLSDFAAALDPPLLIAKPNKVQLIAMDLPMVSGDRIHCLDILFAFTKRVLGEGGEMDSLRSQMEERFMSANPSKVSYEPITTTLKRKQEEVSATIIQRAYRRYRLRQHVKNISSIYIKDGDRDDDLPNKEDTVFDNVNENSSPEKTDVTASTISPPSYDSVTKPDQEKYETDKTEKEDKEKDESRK
- procedure_text: Inhibition of rat Nav1.7 expressed in HEK cells by patch clamp electrophysiology method
pIC50: −log10 of the molar value.

compound_smiles | pIC50
N#Cc1cc(S(=O)(=O)Nc2ncns2)ccc1Oc1ccc(-c2cccc(C(F)(F)F)c2)cc1-c1ccnc(CNCCC2CCNCC2)c1 | 7.12
